# Tested on: Rattus norvegicus
# Run Description: Gastrointestinal toxicity in Wistar rat assessed as ulcerogenic effect at 9 mg/kg, po after 7 hrs
# Type: organism-based
# Set-up: dose 9 mg/kg, route oral
# Reported Conditions: in vivo
Recorded Metric: UI

[[record]]
molecule = "O=C1c2ccccc2NC2(CCCCC2)N1c1ccc(S(=O)(=O)Nc2ncccn2)cc1"
observed_measurement = 0.6

[[record]]
molecule = "CN(C)c1ccc(C2CC(c3ccc(N4C(=O)c5ccccc5NC45CCCCC5)cc3)=NN2c2ccccc2)cc1 (configuration not stated)"
observed_measurement = 10.4

[[record]]
molecule = "COc1ccc2c(c1)c(CC(=O)O)c(C)n2C(=O)c1ccc(Cl)cc1 [INDOMETHACIN]"
observed_measurement = 9.8

[[record]]
molecule = "N#Cc1c(-c2ccccc2O)cc(-c2ccc(N3C(=O)c4ccccc4NC34CCCCC4)cc2)[nH]c1=O"
observed_measurement = 0

[[record]]
molecule = "O=C(NN1C(=O)CSC1c1cccs1)c1ccc(N2C(=O)c3ccccc3NC23CCCCC3)cc1 (configuration not stated)"
observed_measurement = 0.4

[[record]]
molecule = "N#Cc1c(-c2ccccc2O)cc(-c2ccc(N3C(=O)c4ccccc4NC34CCCCC4)cc2)[nH]c1=N"
observed_measurement = 2

[[record]]
molecule = "N#Cc1c(-c2ccc(F)cc2)cc(-c2ccc(N3C(=O)c4ccccc4NC34CCCCC4)cc2)[nH]c1=N"
observed_measurement = 3.2


* * *

# Tested on: Rattus norvegicus
# Run Description: Antiinflammatory activity in rat assessed as reduction in carrageenan-induced paw edema at 9 mg/kg, ip administered 1 hr before carrageenan challenge measured after 2 hrs
# Format: functional
# Set-up: unit not given here
# Reported Conditions: route intraperitoneal
Mark False for Activity values under 80, and True for everything at or above.

[[record]]
compound = "N#Cc1c(-c2ccc(F)cc2)cc(-c2ccc(N3C(=O)c4ccccc4NC34CCCCC4)cc2)[nH]c1=O"
classification = "False"

[[record]]
compound = "O=C(NN1C(=O)CN(C2CCCCC2)C1=S)c1ccc(N2C(=O)c3ccccc3NC23CCCCC3)cc1"
classification = "False"

[[record]]
compound = "CCC(=S)NS(=O)(=O)c1ccc(N2C(=O)c3ccccc3NC23CCCCC3)cc1"
classification = "True"

[[record]]
compound = "N#Cc1c(-c2ccccc2O)cc(-c2ccc(N3C(=O)c4ccccc4NC34CCCCC4)cc2)[nH]c1=O"
classification = "False"

[[record]]
compound = "CC(=O)N1N=C(c2ccc(N3C(=O)c4ccccc4NC34CCCCC4)cc2)CC1c1ccco1 (centres undefined)"
classification = "True"

[[record]]
compound = "CN(C)c1ccc(C2CC(c3ccc(N4C(=O)c5ccccc5NC45CCCCC5)cc3)=NN2c2ccccc2)cc1 (centres undefined)"
classification = "False"

[[record]]
compound = "CCOC(=O)c1ccc(N2C(=O)c3ccccc3NC23CCCCC3)cc1"
classification = "False"

[[record]]
compound = "COc1ccc(/C=N/NC(=O)c2ccc(N3C(=O)c4ccccc4NC34CCCCC4)cc2)cc1"
classification = "True"

[[record]]
compound = "O=C(NN1C(=O)CSC1c1cccs1)c1ccc(N2C(=O)c3ccccc3NC23CCCCC3)cc1 (centres undefined)"
classification = "False"

[[record]]
compound = "O=C1c2ccccc2NC2(CCCCC2)N1c1ccc(S(=O)(=O)Nc2ncccn2)cc1"
classification = "False"

[[record]]
compound = "O=C(/C=C/c1ccco1)c1ccc(N2C(=O)c3ccccc3NC23CCCCC3)cc1"
classification = "True"

[[record]]
compound = "NNC(=O)c1ccc(N2C(=O)c3ccccc3NC23CCCCC3)cc1"
classification = "True"

[[record]]
compound = "N#Cc1c(-c2ccccc2O)cc(-c2ccc(N3C(=O)c4ccccc4NC34CCCCC4)cc2)[nH]c1=N"
classification = "False"

